experiment: LTI-291-001 single ascending dose study: plasma pharmacokinetics and food effect; type: in vivo, human; details: human, plasma, po, 30 mg, 30 mg fasted, single oral dose, geometric mean
measurementName: Cmax
Field note: include the unit after the figure.

Hello, please tell me recorded Cmax for this one: CCCCCO[C@H]1CC[C@H](NC(=O)c2cnn3c(C)cc(C)nc23)CC1 961 ng/mL

---

assay: LTI-291-002 multiple ascending dose study: plasma and CSF pharmacokinetics; type: in vivo, human; conditions: human, in vivo, oral, multiple doses; read-out: t½ after multiple doses in Trial LTI-291-002
measurementName: half-life

Respond only with half-life recorded for CCCCCO[C@H]1CC[C@H](NC(=O)c2cnn3c(C)cc(C)nc23)CC1 25 to 35 h
